# Test system: LU-135
# test summary: cells
# Assay type: functional, cell-based
# stated conditions: Homo sapiens
# Description: SANGER: Inhibition of human LU-135 cell growth in a cell viability assay.
pIC50: −log10 of the molar value.
readout type: pIC50

>>> test_result("CN(C)CCOc1ccc(-c2nc(-c3ccncc3)c(-c3ccc4c(c3)CC/C4=N\\O)[nH]2)cc1")
"< 5.30"
>>> test_result("O=C(NCCCNc1nc(Nc2cccc(NC(=O)N3CCCC3)c2)ncc1I)c1cccs1")
"< 5.30"
>>> test_result("O=C1NC(=O)c2c1c(-c1ccccc1Cl)cc1[nH]c3ccc(O)cc3c21")
"< 5.70"
>>> test_result("CS(=O)(=O)N1CCN(Cc2cc3nc(-c4cccc5[nH]ncc45)nc(N4CCOCC4)c3s2)CC1")
"< 5.40"
>>> test_result("CC1(C)CCC(c2ccc(Cl)cc2)=C(CN2CCN(c3ccc(C(=O)NS(=O)(=O)c4ccc(N[C@H](CCN5CCOCC5)CSc5ccccc5)c(S(=O)(=O)C(F)(F)F)c4)cc3)CC2)C1")
6.73
